Entries annotated with measured inhibition at 500 µM
Molecular target: Angiotensin-I Converting Enzyme from rabbit lung (Oryctolagus cuniculus)
Construct: Angiotensin-I Converting Enzyme from rabbit lung; purchased Sigma (Barcelona, Spain); host or cells: rabbit lung tissue
Sequence (P12822 34-1310): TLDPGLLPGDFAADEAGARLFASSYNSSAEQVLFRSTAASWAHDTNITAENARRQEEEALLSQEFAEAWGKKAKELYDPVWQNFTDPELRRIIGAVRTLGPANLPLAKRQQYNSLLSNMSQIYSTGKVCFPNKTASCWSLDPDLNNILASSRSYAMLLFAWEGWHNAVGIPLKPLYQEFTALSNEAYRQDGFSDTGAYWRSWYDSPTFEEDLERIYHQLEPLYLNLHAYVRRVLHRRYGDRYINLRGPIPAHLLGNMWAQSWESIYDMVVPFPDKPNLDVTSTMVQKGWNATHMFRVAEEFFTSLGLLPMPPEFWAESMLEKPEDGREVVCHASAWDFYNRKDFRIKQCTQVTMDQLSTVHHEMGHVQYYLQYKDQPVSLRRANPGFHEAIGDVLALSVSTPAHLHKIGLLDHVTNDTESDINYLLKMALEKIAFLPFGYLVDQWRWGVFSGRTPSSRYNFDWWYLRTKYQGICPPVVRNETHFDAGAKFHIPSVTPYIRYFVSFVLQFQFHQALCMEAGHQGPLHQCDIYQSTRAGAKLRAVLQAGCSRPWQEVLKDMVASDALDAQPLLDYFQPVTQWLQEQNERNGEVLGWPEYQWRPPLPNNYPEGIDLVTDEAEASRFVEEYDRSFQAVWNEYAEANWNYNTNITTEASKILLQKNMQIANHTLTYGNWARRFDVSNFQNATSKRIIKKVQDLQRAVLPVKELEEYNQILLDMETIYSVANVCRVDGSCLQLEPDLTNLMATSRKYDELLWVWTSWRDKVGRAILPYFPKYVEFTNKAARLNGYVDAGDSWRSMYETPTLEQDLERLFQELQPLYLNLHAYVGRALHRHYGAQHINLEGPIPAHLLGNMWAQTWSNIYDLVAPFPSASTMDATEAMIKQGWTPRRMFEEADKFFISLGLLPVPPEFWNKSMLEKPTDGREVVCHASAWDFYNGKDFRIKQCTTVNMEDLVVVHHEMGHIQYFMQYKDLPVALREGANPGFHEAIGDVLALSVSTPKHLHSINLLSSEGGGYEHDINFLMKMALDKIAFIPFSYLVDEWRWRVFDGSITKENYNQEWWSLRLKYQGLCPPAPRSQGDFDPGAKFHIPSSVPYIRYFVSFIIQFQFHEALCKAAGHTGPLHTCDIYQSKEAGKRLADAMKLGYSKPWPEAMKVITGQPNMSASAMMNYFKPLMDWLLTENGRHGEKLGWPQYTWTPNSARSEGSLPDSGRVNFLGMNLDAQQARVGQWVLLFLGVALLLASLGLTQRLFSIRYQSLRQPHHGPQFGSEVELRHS
Test: ACE-inhibitory (ACEI) activity, fluorimetric assay with o-Abz-Gly-p-Phe(NO2)-Pro substrate
Type: biochemical
Conditions: 0.5 h, 500 µM flavonoid; purified lung ACE, 37°C, 30 min; mean of three experiments (Figure 2B); read-out: percentage of ACE inhibition
VALUE_TYPE: inhibition at 500 µM (%)

INSERT INTO measurements (compound, value_units, cmp, measured) VALUES
  ('O=C1C[C@@H](c2ccc(O)cc2)Oc2cc(O)cc(O)c21', '%', '=', 22.3),
  ('Oc1cc(O)c2c(c1)O[C@H](c1ccc(O)c(O)c1)[C@@H](O)C2', '%', '=', 29),
  ('O=c1c(-c2ccc(O)cc2)coc2cc(O)cc(O)c12', '%', '>', 30),
  ('C[C@@H]1O[C@@H](O[C@H]2[C@H](Oc3cc(O)c4c(c3)O[C@H](c3ccc(O)cc3)CC4=O)O[C@H](CO)[C@@H](O)[C@@H]2O)[C@H](O)[C@H](O)[C@H]1O', '%', '=', 23.3),
  ('Oc1cc(O)c2c(c1)O[C@H](c1ccc(O)c(O)c1)[C@H](O)C2 [Epicatechin]', '%', '>', 30),
  ('COc1ccc(-c2cc(=O)c3c(O)cc(O[C@@H]4O[C@H](CO[C@@H]5O[C@@H](C)[C@H](O)[C@@H](O)[C@H]5O)[C@@H](O)[C@H](O)[C@H]4O)cc3o2)cc1O', '%', '>', 30),
  ('COc1ccc([C@@H]2CC(=O)c3c(O)cc(O)cc3O2)cc1O', '%', '>', 30);

* * *

Target: Angiotensin-I Converting Enzyme from rabbit lung (Oryctolagus cuniculus)
Construct: Angiotensin-I Converting Enzyme from rabbit lung; purchased Sigma (Barcelona, Spain); host or cells: rabbit lung tissue
Assay: ACE-inhibitory (ACEI) activity, fluorimetric assay with o-Abz-Gly-p-Phe(NO2)-Pro substrate
Assay type: biochemical
Settings: 0.5 h, 100 µM flavonoid; purified lung ACE, 37°C, 30 min; mean of three experiments (Figure 2A); read-out: percentage of ACE inhibition
VALUE_TYPE: inhibition at 100 µM

INSERT INTO results (compound, measured) VALUES
  ('C[C@@H]1O[C@@H](O[C@H]2[C@H](Oc3cc(O)c4c(=O)cc(-c5ccc(O)cc5)oc4c3)O[C@H](CO)[C@@H](O)[C@@H]2O)[C@H](O)[C@H](O)[C@H]1O [Rhoifolin, apigenin 7-O-glycoside]', '> 30%'),
  ('O=c1c(O)c(-c2ccc(O)cc2)oc2cc(O)cc(O)c12', '> 30%'),
  ('C[C@@H]1O[C@@H](OC[C@H]2O[C@@H](Oc3c(-c4ccc(O)c(O)c4)oc4cc(O)cc(O)c4c3=O)[C@H](O)[C@@H](O)[C@@H]2O)[C@H](O)[C@H](O)[C@H]1O [Rutin, quercetin 3-O-glycoside]', '> 30%');
